Type: in vivo, human
Conditions: human, plasma, oral, 200 mg, tmax, fasted, single 200 mg tablet, median [range], n=15
MEASURE: Tmax (h)
Write the answer as a number in h, unit excluded.

Query block: // query Tmax value for entry COc1cc(C(=O)NC2CCN(C)CC2)c(F)cc1Nc1ncc(C(F)(F)F)c(Oc2cccc3c2C(=O)N(C)C3)n1
Result block: 3

* * *

Assay type: in vivo, human
Details: human, plasma, oral, 200 mg, AUC0–∞,obs, fed, single 200 mg tablet, adjusted geometric mean
MEASURE: AUC(0-inf) (µM·h)
Write the answer as a number in µM·h, unit excluded.

Query block: // query AUC(0-inf) value for entry COc1cc(C(=O)NC2CCN(C)CC2)c(F)cc1Nc1ncc(C(F)(F)F)c(Oc2cccc3c2C(=O)N(C)C3)n1
Result block: 39.2
